Entries annotated with measured AC50
Target: Microphthalmia-associated transcription factor (Homo sapiens)
Sequence (O75030 whole entry): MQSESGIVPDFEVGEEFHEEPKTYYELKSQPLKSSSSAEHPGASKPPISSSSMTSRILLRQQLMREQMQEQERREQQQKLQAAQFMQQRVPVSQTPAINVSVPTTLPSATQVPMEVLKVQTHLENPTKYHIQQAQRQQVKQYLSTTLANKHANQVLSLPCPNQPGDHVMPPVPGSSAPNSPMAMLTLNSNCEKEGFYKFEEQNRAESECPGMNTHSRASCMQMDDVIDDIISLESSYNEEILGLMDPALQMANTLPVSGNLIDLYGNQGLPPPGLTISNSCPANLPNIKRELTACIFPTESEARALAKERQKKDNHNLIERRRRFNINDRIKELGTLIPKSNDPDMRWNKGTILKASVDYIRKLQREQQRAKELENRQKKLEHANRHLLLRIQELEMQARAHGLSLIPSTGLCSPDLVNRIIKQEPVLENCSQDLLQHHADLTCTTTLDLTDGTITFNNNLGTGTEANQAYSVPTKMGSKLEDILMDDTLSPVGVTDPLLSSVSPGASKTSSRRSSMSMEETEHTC
Test: TRPM1 promoter luciferase signal decrease, dose response, MITF inhibitor project, cell-based, SK-MEL-5, cherry-picked, set 3 (AID 493073)
Type: functional
Calls of active or inactive are those of the source. How the calls were made is not given here.

[[record]]
molecule = "Cc1ccccc1OCc1n(CC(=O)OC2CC(C)CCC2C(C)C)c2ccccc2[n+]1C.[Cl-] (stereo not given)"
experimentalsystem = "Microphthalmia-associated transcription factor (Homo sapiens)"
valuetype = "AC50"
measuredresult = "7.51 µM (active)"

[[record]]
molecule = "O=C(O)c1cccc(NC(=S)N/N=C/c2ccccn2)c1"
experimentalsystem = "Microphthalmia-associated transcription factor (Homo sapiens)"
valuetype = "AC50"
measuredresult = "8.63 µM (active)"

[[record]]
molecule = "O=C(N/N=C/c1cc([N+](=O)[O-])ccc1N1CCNCC1)c1ccc([N+](=O)[O-])cc1"
experimentalsystem = "Microphthalmia-associated transcription factor (Homo sapiens)"
valuetype = "AC50"
measuredresult = "8.19 µM (active)"

[[record]]
molecule = "O=C(c1ccc(S(=O)(=O)Cc2ccccc2Cl)c([N+](=O)[O-])c1)N1CCN(c2ccccn2)CC1"
experimentalsystem = "Microphthalmia-associated transcription factor (Homo sapiens)"
valuetype = "AC50"
measuredresult = "9.49 µM (active)"

[[record]]
molecule = "O=C(Cn1ncc(Cl)c(Cl)c1=O)NC1CCCCC1"
experimentalsystem = "Microphthalmia-associated transcription factor (Homo sapiens)"
valuetype = "AC50"
measuredresult = "6.82 µM (active)"

[[record]]
molecule = "COc1cc2c(cc1OC)C(C)N(S(=O)(=O)c1cnc(Cl)c(Cl)c1)CC2 (stereo not given)"
experimentalsystem = "Microphthalmia-associated transcription factor (Homo sapiens)"
valuetype = "AC50"
measuredresult = "12.1 µM (active)"


Form field AC50, entry C#CCCc1ccccc1/C=[N+](/C)[O-] : 9.4 µM (active)

Query N=c1n(CCN2CCCC2)c2ccccc2n1CC(O)c1ccc(Cl)c(Cl)c1 (stereo not given) yields AC50 of 11.8 µM (active)

For reference, reported AC50 for COc1ccc(NC(=O)CCC(=O)N/N=C/c2ccc([N+](=O)[O-])s2)cc1 stands at 7.62 µM (active)

Value of measured AC50 for the entry CN(C)c1nc(-c2ccccn2)nnc1-c1ccccc1 : 6.17 µM (active)

// provenance: ChEMBL document CHEMBL1201862
